Molecular target: IRAK4 (Homo sapiens)
Sequence (Q9NWZ3 1-460): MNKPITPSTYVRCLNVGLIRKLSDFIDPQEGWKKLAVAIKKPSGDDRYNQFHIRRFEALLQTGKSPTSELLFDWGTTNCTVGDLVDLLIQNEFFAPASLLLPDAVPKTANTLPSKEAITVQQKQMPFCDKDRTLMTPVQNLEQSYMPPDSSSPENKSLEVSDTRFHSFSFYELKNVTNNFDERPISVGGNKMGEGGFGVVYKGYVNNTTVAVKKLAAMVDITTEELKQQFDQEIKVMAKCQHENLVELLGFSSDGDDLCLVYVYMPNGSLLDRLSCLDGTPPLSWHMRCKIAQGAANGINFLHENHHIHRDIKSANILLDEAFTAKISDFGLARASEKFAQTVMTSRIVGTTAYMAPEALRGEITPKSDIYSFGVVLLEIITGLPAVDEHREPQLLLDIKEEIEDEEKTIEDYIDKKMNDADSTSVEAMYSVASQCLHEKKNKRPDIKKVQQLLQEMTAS
pIC50: −log10 of the molar value.
Tick Y if pIC50 is 8 or greater. Tick N if pIC50 is less than 8.

Observe how each entry below is paired with its result.
# compound, assay-target, cat
records = [
    ("C=Cc1c[nH]c(=O)c2cc3ccnc(OC[C@@H]4CCC(=O)N4)c3cc12", "IRAK4 (Homo sapiens)", "Y"),
    ("CC#Cc1c[nH]c(=O)c2cc3ccnc(OC[C@@H]4CCC(=O)N4)c3cc12", "IRAK4 (Homo sapiens)", "N"),
    ("O=C1CC[C@@H](COc2nccc3cc4c(=O)[nH]cc(C5CCC5)c4cc23)N1", "IRAK4 (Homo sapiens)", "N"),
    ("NCC#Cc1c[nH]c(=O)c2cc3ccnc(OC[C@@H]4CCC(=O)N4)c3cc12", "IRAK4 (Homo sapiens)", "N"),
    ("CC[C@@H]1[C@H](F)C(=O)N[C@@H]1COc1nccc2cc3c(=O)[nH]cc(C#N)c3cc12", "IRAK4 (Homo sapiens)", "N"),
]

Item O=C1CC[C@@H](COc2nccc3cc4c(=O)[nH]cc(CC(F)(F)F)c4cc23)N1 with pIC50 of 8 or above? N

Item CC(=O)c1c[nH]c(=O)c2cc3ccnc(OC[C@@H]4CCC(=O)N4)c3cc12 with pIC50 of 8 or above? N

Item CC(C)(N)c1c[nH]c(=O)c2cc3ccnc(OC[C@@H]4CCC(=O)N4)c3cc12 with pIC50 of 8 or above? N

###

Tested on: TNFa
Test: TNFa ELISA, THP1-IFNy, LTA stimulated
Format: cell-based
Conditions: 10 pt curve
Where a name gives a salt, the structure may show the parent alone.
endpoint: pEC50
One number for each entry, as −log10 of the molar value.

Look at this compound and give its reported pEC50. Cc1c[nH]c(=O)c2cc3ccnc(OC[C@@H]4CCC(=O)N4)c3cc12 [I-2, formic acid salt] 6.56

###

Structures can show the parent of a compound that is named as a salt.
Observed pIC50 values for IRAK1 (Homo sapiens, UniProt P51617) are listed in what follows.
Give bare numbers, as −log10 of the molar value.

// worked examples, pIC50 included
# compound, pIC50
rows = [
    ("C=C(C)c1c[nH]c(=O)c2cc3ccnc(OC[C@@H]4CCC(=O)N4)c3cc12", 5.19),
    ("O=C1CC[C@@H](COc2nccc3cc4c(=O)[nH]cc(-c5cn[nH]c5)c4cc23)N1", 5.52),
]

Provide pIC50 values for the following items, in order.
1. C#CC(C)(O)c1c[nH]c(=O)c2cc3ccnc(OC[C@@H]4CCC(=O)N4)c3cc12 (some centres unmarked)
2. CC(C)c1c[nH]c(=O)c2cc3ccnc(OC[C@@H]4CCC(=O)N4)c3cc12
3. CC(O)c1c[nH]c(=O)c2cc3ccnc(OC[C@@H]4CCC(=O)N4)c3cc12 (some centres unmarked)
4. CC[C@@H]1[C@H](F)C(=O)N[C@@H]1COc1nccc2cc3c(=O)[nH]ccc3cc12
5. N#Cc1c[nH]c(=O)c2cc3ccnc(OC[C@@H]4CCC(=O)N4)c3cc12
6. O=C1CC[C@@H](COc2nccc3cc4c(=O)[nH]cc(C#CCO)c4cc23)N1
7. CCCc1c[nH]c(=O)c2cc3ccnc(OC[C@@H]4CCC(=O)N4)c3cc12
8. O=C1CC[C@@H](COc2nccc3cc4c(=O)[nH]cc(C5CC5)c4cc23)N1

1: 4.96; 2: 5.08; 3: 4.95; 4: 5.95; 5: 4.99; 6: 6.11; 7: 4.95; 8: 5.32

Provide pIC50 values for the following items, in order.
1. Cc1c[nH]c(=O)c2cc3ccnc(OC[C@@H]4CCC(=O)N4)c3cc12 [I-2, formic acid salt]
2. O=C1CC[C@@H](COc2nccc3cc4c(=O)[nH]cc(C5CCC5)c4cc23)N1
3. O=C1CC[C@@H](COc2nccc3cc4c(=O)[nH]cc(C5CCCC5)c4cc23)N1
4. CC[C@@H]1[C@H](F)C(=O)N[C@@H]1COc1nccc2cc3c(=O)[nH]cc(C)c3cc12

[5.42, 5.10, 5.20, 7.74]
